// inhibition lookup, one value per entry
target: Matrix metalloproteinase-9 (Homo sapiens); assay: Inhibition of recombinant human MMP9 at 10 uM using thiopeptide as substrate preincubated for 30 mins followed by substrate addition and measured every min for 20 mins by colorimetric assay relative to control
Sequence (P14780 whole entry): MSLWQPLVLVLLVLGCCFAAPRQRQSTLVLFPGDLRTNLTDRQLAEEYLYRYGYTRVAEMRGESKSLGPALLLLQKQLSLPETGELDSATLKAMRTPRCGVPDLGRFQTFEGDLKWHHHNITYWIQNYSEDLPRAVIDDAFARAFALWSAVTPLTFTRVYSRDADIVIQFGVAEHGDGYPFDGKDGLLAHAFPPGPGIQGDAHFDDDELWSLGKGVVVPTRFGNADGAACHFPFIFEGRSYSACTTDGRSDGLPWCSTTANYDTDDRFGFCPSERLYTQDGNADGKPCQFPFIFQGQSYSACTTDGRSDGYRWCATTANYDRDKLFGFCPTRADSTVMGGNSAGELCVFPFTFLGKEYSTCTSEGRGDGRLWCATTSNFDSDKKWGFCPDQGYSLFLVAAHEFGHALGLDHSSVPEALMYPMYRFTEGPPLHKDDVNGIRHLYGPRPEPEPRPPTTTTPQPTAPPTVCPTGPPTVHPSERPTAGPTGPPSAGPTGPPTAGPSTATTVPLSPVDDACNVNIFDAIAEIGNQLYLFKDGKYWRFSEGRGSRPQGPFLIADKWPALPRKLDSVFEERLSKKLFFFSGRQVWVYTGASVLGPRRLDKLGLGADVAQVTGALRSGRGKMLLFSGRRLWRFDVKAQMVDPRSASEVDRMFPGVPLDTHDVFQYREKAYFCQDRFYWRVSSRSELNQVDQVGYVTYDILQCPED
endpoint: inhibition (%)

1. Cc1[nH]c2ccccc2c1CCNC(=O)CNCc1cc(Cl)c2cccnc2c1O    35.2
2. Cc1[nH]c2ccccc2c1CCNC(=O)CCCNCc1cc(Cl)c2cccnc2c1O    100
3. O=C(CCCCCN1C(=O)c2ccccc2S1(=O)=O)Nc1ccc(O)c2ncccc12    24.3
4. O=C(CCNCc1ccc(O)c2ncccc12)Nc1ccccc1    9.8
5. Cc1[nH]c2ccccc2c1CCNC(=O)CCCNCc1ccc(O)c2ncccc12    12.3
6. O=C(CCCCCCNCc1ccc(O)c2ncccc12)Nc1ccccc1    28.8
